Test system: 26-10 Fab
Type: binding, murine
Protocol conditions: normalizing glycoside digoxigenin
Recorded normalized concentration of inhibitor giving 50% inhibition of 125I-digoxin binding for the following molecules
Test readout: normalized concentration of inhibitor giving 50% inhibition of 125I-digoxin binding

- Molecule: "C[C@]12CC[C@H](O)C[C@H]1CC[C@@H]1[C@@H]2C[C@@H](O)[C@]2(C)[C@@H](C3=CC(=O)OC3)CC[C@]12O [Digoxigenin, digoxigenin]"
  Result: 1.0
- Molecule: "C[C@H]1O[C@@H](O[C@H]2[C@@H](O)C[C@H](O[C@H]3[C@@H](O)C[C@H](O[C@H]4CC[C@@]5(C)[C@H](CC[C@@H]6[C@@H]5C[C@@H](O)[C@]5(C)[C@@H](C7=CC(=O)OC7)CC[C@]65O)C4)O[C@@H]3C)O[C@@H]2C)C[C@H](O)[C@@H]1O [Digoxin, digoxin]"
  Result: 0.9
- Molecule: "C[C@H]1O[C@@H](O[C@H]2[C@@H](O)C[C@H](O[C@H]3[C@@H](O)C[C@H](O[C@H]4CC[C@@]5(C)[C@H](CC[C@@H]6[C@@H]5CC[C@]5(C)[C@@H](C7=CC(=O)OC7)[C@@H](O)C[C@]65O)C4)O[C@@H]3C)O[C@@H]2C)C[C@H](O)[C@@H]1O [Gitoxin, gitoxin]"
  Result: 8.1
- Molecule: "C[C@H]1O[C@@H](O[C@H]2[C@@H](O)C[C@H](O[C@H]3[C@@H](O)C[C@H](O[C@H]4CC[C@@]5(C)[C@H](CC[C@@H]6[C@@H]5CC[C@]5(C)[C@@H](C7=CC(=O)OC7)CC[C@]65O)C4)O[C@@H]3C)O[C@@H]2C)C[C@H](O)[C@@H]1O [Digitoxin, digitoxin]"
  Result: 0.8

----------
Tested on: BABS
Assay remarks: Radioimmunoassay, inhibition of 125I-digoxin binding to BABS by cardiac glycosides
Design: species or system murine
Protocol conditions: normalizing glycoside digoxin
Test readout: normalized concentration of inhibitor giving 50% inhibition of 125I-digoxin binding

- Molecule: "C[C@H]1O[C@@H](O[C@H]2[C@@H](O)C[C@H](O[C@H]3[C@@H](O)C[C@H](O[C@H]4CC[C@@]5(C)[C@H](CC[C@@H]6[C@@H]5CC[C@]5(C)[C@@H](C7=CC(=O)OC7)CC[C@]65O)C4)O[C@@H]3C)O[C@@H]2C)C[C@H](O)[C@@H]1O [Digitoxin, digitoxin]"
  Result: 2.0
- Molecule: "CC(=O)OC1CCC2(C=O)C3CCC4(C)C(C5=CC(=O)OC5)CCC4(O)C3CCC2(O)C1 (stereo not shown) [Acetyl Strophanthidin, acetyl strophanthidin]"
  Result: 5.9
- Molecule: "C[C@]12CC[C@H](O)C[C@H]1CC[C@@H]1[C@@H]2CC[C@]2(C)[C@@H](C3=CC(=O)OC3)CC[C@]12O [Digitoxigenin, digitoxigenin]"
  Result: 2.6
- Molecule: "C[C@@H]1O[C@@H](O[C@H]2C[C@@H](O)[C@]3(CO)[C@H]4[C@H](O)C[C@]5(C)[C@@H](C6=CC(=O)OC6)CC[C@]5(O)[C@@H]4CC[C@]3(O)C2)[C@H](O)[C@H](O)[C@H]1O [Ouabain, ouabain]"
  Result: 150
- Molecule: "C[C@H]1O[C@@H](O[C@H]2[C@@H](O)C[C@H](O[C@H]3[C@@H](O)C[C@H](O[C@H]4CC[C@@]5(C)[C@H](CC[C@@H]6[C@@H]5C[C@@H](O)[C@]5(C)[C@@H](C7=CC(=O)OC7)CC[C@]65O)C4)O[C@@H]3C)O[C@@H]2C)C[C@H](O)[C@@H]1O [Digoxin, digoxin]"
  Result: 1.0
- Molecule: "C[C@]12CC[C@H](O)C[C@H]1CC[C@@H]1[C@@H]2C[C@@H](O)[C@]2(C)[C@@H](C3=CC(=O)OC3)CC[C@]12O [Digoxigenin, digoxigenin]"
  Result: 7.3
- Molecule: "C[C@H]1O[C@@H](O[C@H]2[C@@H](O)C[C@H](O[C@H]3[C@@H](O)C[C@H](O[C@H]4CC[C@@]5(C)[C@H](CC[C@@H]6[C@@H]5CC[C@]5(C)[C@@H](C7=CC(=O)OC7)[C@@H](O)C[C@]65O)C4)O[C@@H]3C)O[C@@H]2C)C[C@H](O)[C@@H]1O [Gitoxin, gitoxin]"
  Result: 62
